Origin of the recorded values: PubChem BioAssay (NCI)

Tested on: CCRF-CEM leukemia
methodSummary: NCI tumour cell line growth inhibition, 48 h
In this section we review reported TGI values for a set of compounds.

Please review the entries below; each comes with its answer.
What value of TGI has been reported for the following compound? `CN(/N=C\c1ccc2ccccc2c1)C1=NCCN1`
65 µM

Would you mind telling me what TGI value was observed for `Cn1c2ccccc2n2c3ccccc3c(=O)c(C#N)c12` ?
> 100 µM

Give the measured TGI of O=C(O)c1cc(Cc2ccc(O)c(C(=O)O)c2)ccc1O (tested in a mixture with another compound) .
> 100 µM

// query TGI value for entry CC(O)C(O)C(O)C(/C=N\Nc1ccccc1)=N/Nc1ccccc1 (stereo unspecified)
52.3 µM

Given the entry NC(Cc1ccnnc1)C(=O)O (stereo unspecified) , report its measured TGI.
> 100 µM

Suppose we examine the compound `COc1ccc(/C=C(/C)[N+](=O)[O-])cc1` ; what TGI value has been reported?
4.48 µM

Next:
If you can, please state the reported TGI value of `CCCCCCC#CC#Cc1cccc(=O)o1` .
> 19.8 µM

====

Test system: OVCAR-5 ovarian
methodSummary: NCI tumour cell line growth inhibition, 48 h; in the data active = GI50 below about 0.43 µM; inactive = the rest
Choose one outcome from this list and give only that: T for active, F for inactive

Field: example entries. Status: answers known.
Identify the outcome logged in this assay for the compound shown: `CC(C)(C)OC(=O)CN1CCc2c(sc3ncnc(N/N=C/c4cccc5ccccc45)c23)C1`
F

What call does the record list for `O=C(Nc1ccccc1O)c1ccc(CNC(=O)c2sccc2Nc2ccnc(C(F)(F)F)c2)cc1` ?
F

Status in this test for COc1ccc(CC(NC(=O)[C@H](C)NC(=O)CN2CCOCC2)C(=O)N[C@@H](Cc2ccccc2)C(=O)[C@@]2(C)CO2)cc1 (stereo not given in full) ?
T

Returns: the outcome recorded for `C(=C\c1nccc2c1[nH]c1ccccc12)/c1ccccc1` in this assay.
F

Here is the next item to consider.
// outcome(item) with item = `CS(=O)(=O)CCn1c(=O)c(Oc2ccc(F)cc2F)cc2cnc(NC3CCOCC3)nc21`
F

====

System: MDA-MB-231 breast
methodSummary: NCI tumour cell line growth inhibition, 48 h
Could you label it condition met if measured TGI is 40 µM or higher, and condition not met otherwise?

Answered examples (5):
// inclusive: TGI at least 40 µM? input: `CO[C@@]12C[C@H]3[C@@H]([C@@H](O)[C@@H](OC(=O)/C=C/c4ccccc4)[C@@]4(O)C(C)(C)CCC[C@]34C)[C@@H](C)C1=CC(=O)O2`
condition not met

Quick check, TGI >= 40 µM? `O=C(Nc1ccccc1O)c1ccc(CNC(=O)c2sccc2Nc2ccnc(C(F)(F)F)c2)cc1`
condition not met

Threshold query (TGI >= 40 µM) on `O=C(Cn1c2ccc(Br)cc2c2nc3ccccc3nc21)N/N=C/c1ccccc1`
condition met

I'd appreciate it if you could say whether CNC(=O)CNC(=O)C(Cc1ccc(NC(=O)CCCCC(C)=O)cc1)NC(=O)C(CCC(=O)OCc1ccccc1)NC(=O)OC(C)(C)C (centres undefined) has TGI at least equal to 40 µM.
condition met

Is TGI for `CC(=O)c1ccc2c(c1)N(CCCN1CCN(CCO)CC1)c1ccccc1C2` at or above 40 µM?
condition not met

New cases:
Given the entry `Cn1c2ccccc2n2c3ccccc3c(=O)c(C#N)c12` , answer whether its TGI meets or surpasses 40 µM.
condition met

Check this compound for TGI at or above 40 µM: `O=C1/C(=C/c2ccccc2)CCc2ccccc21`
condition met

Reported TGI at or above 40 µM? `OCC#Cc1ccccc1C#Cc1ccc(C#Cc2ccccc2C#CCO)s1`
condition met

====

// values below are reported GI50
Test system: A549 NSCLC
methodSummary: NCI tumour cell line growth inhibition, 48 h

Consider the worked cases shown below.
# input molecule: `Cc1nc2cc(Nc3nc(Nc4ccc(F)cc4)nc(N4CCN(C)CC4)n3)ccc2n1Cc1ccccc1` ; wanted: its GI50
1.51 µM

Record request: GI50 value, item `N[C@@H]1CCCC[C@@H]1N.O=C([O-])CN(CP(=O)([O-])[O-])CP(=O)([O-])[O-].[Pt+2]`
> 100 µM

Can you share its GI50? I mean this molecule: `COc1ccc(-c2nnc(N3CCN(C(=O)CN4CCN(c5ccc(Cl)cc5)CC4)CC3)nc2-c2ccc(OC)cc2)cc1`
27.4 µM

Can you share its GI50? I mean this molecule: C1=C(c2ccccc2)C(c2ccc(OCCN3CCCCC3)cc2)Oc2ccccc21 (centres undefined)
2.19 µM

Further cases:
Could you share which GI50 value was measured for `O=C(CNc1ncco1)Nc1ccc(S(=O)(=O)c2ccc(NC(=O)CNc3ncco3)cc2)cc1` ?
2.2 µM

Entry `[C-]#[N+][C@]12C(=O)[C@H](CCC1(C)C)C(C)(C)[C@H]1C(=O)N(C)c3cccc2c31` : reported GI50 = ?
5.42 µM

Dear colleague, I am looking for the recorded GI50 of the following molecule: `COc1ccc(C(=O)COc2cccc(/C=C3\CSc4ccc(Cl)cc4C3=O)c2)cc1`
64 µM

Form field: reported GI50 of CC1SC(c2c(Cl)cccc2Cl)N(NC(=O)C(O)c2ccccc2)C1=O (centres undefined)
94 µM

Could you tell me which GI50 is on file for COc1cc(C2=NN(c3ccc(S(N)(=O)=O)cc3)C(c3ccc(Cl)cc3)C2)cc(OC)c1OC (centres undefined) ?
4 µM

====

Tested on: K-562 leukemia
methodSummary: NCI tumour cell line growth inhibition, 48 h
Measured TGI values are reported for all entries that follow.

Sample `C/C(N=Nc1nc2ccccc2[nH]1)=C1/C=CC=CN1O` — what was its TGI?
> 100 µM

Item `Nc1ccc2ccc(NS(=O)(=O)N3CCCCC3)cc2c1` has what recorded TGI?
> 100 µM

Which TGI value is on record for CCOC(=O)C1=COC(C)(c2ccccc2)CC1=O (stereo not given) ?
> 100 µM

Others:
May I ask what TGI has been recorded for `C#C[C@]1(O)CC[C@H]2[C@@H]3CCC4=C/C(=N\OCCN(CC)CC)CC[C@]4(C)[C@H]3CC[C@@]21C` ?
11.9 µM

Param item = `CN(C)CCc1ccnc2nc(-c3ccc4ccccc4c3)cn12` ; retrieve measured TGI.
> 100 µM

Report TGI for `COC(CN(C=O)[C@@H](c1ccc(Cl)cc1)c1cc2ccccc2o1)OC` please.
53.6 µM

Tell me the measured TGI of CCCCCCCCCCCCCCCC(=O)OC(COC(C)=O)CO[P+](=O)O (stereo not given) , please.
> 100 µM

Any idea what its TGI is? The compound is COc1cc(NCC2COc3c(ccc(OC)c3OC)C2=O)c([N+](=O)[O-])cc1OC (stereo not given)
> 100 µM

Suppose we examine the compound `COc1ccc([C@]23CCN(S(=O)(=O)c4ccc(C)cc4)[C@H]2[C@H](CO)C2(CC3)OCC(C)(C)CO2)cc1OC` ; what TGI value has been reported?
> 100 µM

Requested read-out: TGI. Entry: `CC(C)(C)OC(=O)CN1CCc2c(sc3ncnc(N/N=C/c4cccc5ccccc45)c23)C1`
> 33.3 µM

====

Recorded TGI by entry
Test system: RPMI-8226 leukemia
methodSummary: NCI tumour cell line growth inhibition, 48 h

Example entries begin here.
Could you tell me which TGI is on file for `COc1cc(Cl)c2c3c(c(C(=O)c4ccccc4)oc13)CCC2` ?
> 100 µM

Which value of TGI has been reported for `O=S(=O)(O)c1cc(N=Nc2cc(S(=O)(=O)O)c3cccnc3c2O)ccc1/C=C/c1ccc(N=Nc2cc(S(=O)(=O)O)c3cccnc3c2O)cc1S(=O)(=O)O` in the records?
> 100 µM

Which TGI is listed for CCc1cccc(C(C)CC)c1NC(=O)C(=O)C(CC(=O)Nc1ccc(Cl)c(Cl)c1)C(=O)OC (centres undefined) ?
> 100 µM

# context switch: different compound, same TGI
Look up TGI for this compound: `CC(=O)C(=[N+]=[N-])C(=O)OCCOC(=O)C(=[N+]=[N-])C(C)=O`
> 1 µM

====

Reported TGI is given for each of the following compounds.
Test system: PC-3 prostate
methodSummary: NCI tumour cell line growth inhibition, 48 h
Give your result in µM as a bare value.

Query: TGI; subject: `Nc1ccc(Oc2ccc(C34CC5CC(C3)CC(c3ccc(Oc6ccc(N)cc6)cc3)(C5)C4)cc2)cc1`
25.7

For the compound CC(CN1CCN(CC(C)Nc2ccnc3cc(Cl)ccc23)CC1)Nc1ccnc2cc(Cl)ccc12 (stereo not given) , what TGI is on record?
57.2

Consider now this further compound.
Returns the measured TGI for the input compound. Input: `COC(CN(C=O)[C@@H](c1ccc(Cl)cc1)c1cc2ccccc2o1)OC`
45.6

====

Tested on: RXF 393 renal
methodSummary: NCI tumour cell line growth inhibition, 48 h; in the data active = GI50 below about 0.43 µM; inactive = the rest
Please state which outcome applies, choosing from active, inactive

Worked set:
Can you look up the reported call for COc1cc(C2=NN(c3ccc(S(N)(=O)=O)cc3)C(c3ccc(Cl)cc3)C2)cc(OC)c1OC (centres undefined) for me?
inactive

Please indicate how the test categorized `[C-]#[N+][C@]12C(=O)[C@H](CCC1(C)C)C(C)(C)[C@H]1C(=O)N(C)c3cccc2c31` .
inactive

I would be grateful if you could indicate the recorded call for `Cc1cc(C)n(C(=O)c2nn(-c3ccc(Cl)cc3)cc2O)n1` .
inactive

Check the results log: what was the call for `C/C1=C\C/C=C(\C)[C@H]2CC(CC/C(C)=C/CC1)[C@](C)(C=O)O2` ?
inactive

Write down the call the test reported for this compound. Item: `Oc1c(I)cc(-c2nc3ccccc3s2)cc1CN(Cc1ccccn1)Cc1ccccn1`
inactive

# outcome recorded in this test, key = `c1cc[c]([Sn]([S]c2cccc3cccnc23)([S]c2cccc3cccnc23)[c]2ccccc2)cc1`
active

Each compound tested received a call. Report the one for `CC(C)(C)OC(=O)CN1CCc2c(sc3ncnc(N/N=C/c4cccc5ccccc45)c23)C1` .
inactive

Hi, sorry to bother you, what did the test record for `O=C(NNS(=O)(=O)c1ccc(F)cc1)c1cccnc1Nc1ccc(Cl)cc1Cl` ?
inactive

Now examine the next entry.
# outcome recorded in this test, key = COC(=O)C1(C2CC/C(C)=C/CC/C(C)=C/CC[C@@]3(C)O[C@@H]3C2)CC1 (some centres undefined)
inactive
